Every entry's value here was drawn from PubChem BioAssay (NCI).

# Tested on: LOX IMVI melanoma
# PROTOCOL TEXT: NCI tumour cell line growth inhibition, 48 h
Items are presented alongside their recorded TGI.

[
  {
    "MOLECULE": "Nc1ncc(-c2cnn(C3CCNCC3)c2)cc1-c1nc2ccccc2o1",
    "MEASUREMENT TARGET": "LOX IMVI melanoma",
    "ASSAY ENDPOINT": "TGI",
    "READOUT VALUE": "2.59 µM"
  },
  {
    "MOLECULE": "O=C(O)CN1CCNCCN(CC(=O)O)CC1",
    "MEASUREMENT TARGET": "LOX IMVI melanoma",
    "ASSAY ENDPOINT": "TGI",
    "READOUT VALUE": "> 100 µM"
  }
]

Challenge: Look up TGI: N=c1ccn2c(n1)OC1C(OP(=O)(O)O)C(CO)OC12 (configuration not stated)
Response given: > 100 µM

Challenge: Suppose we examine the molecule CCC1(O)CC(OC2CC(N(C)C)C(OC3CC(O)C(OC4OC(C)C(=O)C=C4N)C(C)O3)C(C)O2)c2c(O)c3c(c(O)c2C1C(=O)OC)C(=O)c1cccc(O)c1C3=O (configuration not stated) ; what TGI value has been reported?
Response given: 0.613 µM

Challenge: Quick one: TGI of O=C1C(=O)c2cc([N+](=O)[O-])ccc2-c2ccccc21 ?
Response given: 2.48 µM

Challenge: Fill blank: measured TGI of the molecule O=C(Sc1c(-c2ccccc2)c(=O)n(-c2ccccc2)c(=S)n1-c1ccccc1)c1ccc(Cl)cc1 is ____.
Response given: > 100 µM

Challenge: For CCCCCCCC1c2cc3[nH]c(cc4nc(cc5[nH]c(cc(n2)[C@@]1(C)CC(=O)N(C)C)c(C)c5CCC(=O)O)C(CCC(=O)O)=C4C)cc3C (some centres not stated) , what is its reported TGI?
Response given: 33.3 µM

Challenge: Entry C/C(CC(=O)CCCC(=O)Nc1ccc(Cl)cc1Cl)=N/NC(=O)CC#N : reported TGI = ?
Response given: > 100 µM

Challenge: Could you share which TGI value was measured for CC(C)=CCNc1ncnc2c1ncn2CCC(=O)OC(C)(C)C ?
Response given: > 100 µM

Challenge: Value lookup for TGI; key = CC(=O)[CH-]C(=O)c1ccccc1.CC(=O)[CH-]C(=O)c1ccccc1.O=C([O-])C[O-].O=C([O-])C[O-].[Ti+4]
Response given: > 100 µM
